biological target: full-length human PKCι (Homo sapiens); construct: Recombinant, full-length human PKCι expressed in Sf21 insect cells is also commercially available; purchased; host or cells: Sf21 insect cells; assay: PKCι IC50 IMAP assay, full-length PKCι at 150 μM ATP; assay type: biochemical; conditions: read-out: IC50 in IMAP assay against full length PKCi at 150 μM ATP
observable: IC50

Consider the worked cases shown below.
• COc1cncc2nc(-c3ccnc(Nc4cc(C#N)ccc4F)c3)nc(N3CCNCC3)c12 [Example 420] = 100 to 1000 nM
• C[C@H]1CN(c2nc(-c3ccnc(Nc4ccccc4)c3)nc3cncc(C4CC4)c23)CCN1 [Example 569] = < 100 nM
• FC(F)(F)c1ccnc(Nc2cc(-c3nc(N4CCNCC4)c4c(C5CC5)cncc4n3)ccn2)c1 [Example 269] = < 100 nM

Given CNc1nc(-c2ccnc(Nc3cccc(C4CCNCC4)c3)c2)nc2cncc(OC)c12 [Example 502] , state its recorded IC50.
1000 to 10000 nM

For the molecule Fc1ccccc1Nc1cc(-c2nc(N3CCNCC3)c3c(C4CC4)cncc3n2)ccn1 [Example 263] , what IC50 is on record?
< 100 nM

Given the molecule Fc1cccc(Nc2cc(-c3nc(N4CCNCC4)c4c(Cl)cncc4n3)ccn2)n1 [Example 253] , what is its reported IC50?
< 100 nM

Look at this molecule and give its reported IC50. COCC(C)(C)c1cc2c(-c3nc(N4CCNCC4)c4c(C5CCC5)cncc4n3)ccnc2[nH]1 [Example 2109]
< 100 nM

====

Biological target: full-length human PKCι (Homo sapiens, UniProt P41743)
Construct: Recombinant, full-length human PKCι expressed in Sf21 insect cells is also commercially available
Sequence (P41743 1-596): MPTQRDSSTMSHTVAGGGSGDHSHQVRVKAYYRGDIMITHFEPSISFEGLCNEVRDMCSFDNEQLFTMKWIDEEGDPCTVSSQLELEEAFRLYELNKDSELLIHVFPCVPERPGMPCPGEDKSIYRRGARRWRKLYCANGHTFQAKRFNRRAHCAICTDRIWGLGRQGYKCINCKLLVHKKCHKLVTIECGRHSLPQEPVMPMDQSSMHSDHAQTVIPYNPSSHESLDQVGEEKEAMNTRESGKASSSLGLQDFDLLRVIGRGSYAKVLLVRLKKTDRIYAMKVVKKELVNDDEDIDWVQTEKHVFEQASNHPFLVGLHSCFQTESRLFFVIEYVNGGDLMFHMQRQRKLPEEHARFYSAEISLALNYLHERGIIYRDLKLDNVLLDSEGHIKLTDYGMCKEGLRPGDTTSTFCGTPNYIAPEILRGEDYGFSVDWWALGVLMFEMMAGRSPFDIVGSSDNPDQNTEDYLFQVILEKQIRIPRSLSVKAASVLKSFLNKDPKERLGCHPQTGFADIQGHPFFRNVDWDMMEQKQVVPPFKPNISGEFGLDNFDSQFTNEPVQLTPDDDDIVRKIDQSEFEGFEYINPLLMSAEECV
Test: PKCι IC50 IMAP assay, full-length PKCι at 150 μM ATP
Conditions: read-out: IC50 in IMAP assay against full length PKCi at 150 μM ATP
pIC50: −log10 of the molar value.
Measured pIC50, listed per entry.

- Cc1ccc(C#N)cc1Nc1cc(-c2nc(N3CCNCC3)c3c(C4CC4)cncc3n2)ccn1: > 7.00
- COc1cncc2nc(-c3ccnc(Nc4cnn(C5CCNCC5)c4)c3)nc(N3CCNCC3)c12: > 7.00
- c1ccc2c(Nc3cc(-c4nc(N5CCNCC5)c5c(C6CC6)cncc5n4)ccn3)nccc2c1: > 7.00
- Clc1ccc(Nc2cc(-c3nc(N[C@@H]4CCNC4)c4ccncc4n3)ccn2)nc1: > 7.00
- CN1CCN(c2nc(-c3ccnc(Nc4cccc(N5CCC(O)CC5)c4)c3)nc3cncc(C4CC4)c23)CC1: 6.00 to 7.00

Quick one: pIC50 for Fc1cccc(F)c1Nc1cc(-c2nc(NCC3CCN(C4CCC4)CC3)c3c(C4CC4)cncc3n2)ccn1 ?
6.00 to 7.00

Fill in: pIC50 of CC(C)Cn1cc(-c2nccc3c(NC[C@@H](N)Cc4ccccc4)nc(-c4ccncc4)nc23)cn1 is ___
5.00 to 6.00

# pIC50 lookup, item COc1cncc2nc(-c3ccnc(Nc4c(F)cc(F)cc4F)c3)nc(N3CCNCC3)c12
> 7.00

====

target: full-length human PKCι (Homo sapiens, UniProt P41743); construct: Recombinant, full-length human PKCι expressed in Sf21 insect cells is also commercially available; purchased; host or cells: Sf21 insect cells; assay: PKCι IC50 IMAP assay, full-length PKCι at 150 μM ATP; type: biochemical; conditions: read-out: IC50 in IMAP assay against full length PKCi at 150 μM ATP
observable: IC50

Worked cases, IC50 given:
* c1cc(Nc2cc(-c3nc(N4CCNCC4)c4c(C5CC5)cncc4n3)ccn2)cc(C2CC2)c1 | < 100 nM
* COc1cncc2nc(-c3ccnc(Nc4ccc(N5CCOCC5)cc4F)c3)nc(N3CCNCC3)c12 | < 100 nM
* N[C@H](CNc1nc(-c2ccncc2)nc2c(-c3ccc(-c4ccc(Cl)cc4)cc3)nccc12)Cc1ccccc1 | 1000 to 10000 nM

Can you share its IC50? I mean this compound: COc1cncc2nc(-c3ccncc3)nc(N3CCOCC3)c12
1000 to 10000 nM

====

Biological target: full-length human PKCι (Homo sapiens, UniProt P41743)
Construct: Recombinant, full-length human PKCι expressed in Sf21 insect cells is also commercially available
Sequence (P41743 1-596): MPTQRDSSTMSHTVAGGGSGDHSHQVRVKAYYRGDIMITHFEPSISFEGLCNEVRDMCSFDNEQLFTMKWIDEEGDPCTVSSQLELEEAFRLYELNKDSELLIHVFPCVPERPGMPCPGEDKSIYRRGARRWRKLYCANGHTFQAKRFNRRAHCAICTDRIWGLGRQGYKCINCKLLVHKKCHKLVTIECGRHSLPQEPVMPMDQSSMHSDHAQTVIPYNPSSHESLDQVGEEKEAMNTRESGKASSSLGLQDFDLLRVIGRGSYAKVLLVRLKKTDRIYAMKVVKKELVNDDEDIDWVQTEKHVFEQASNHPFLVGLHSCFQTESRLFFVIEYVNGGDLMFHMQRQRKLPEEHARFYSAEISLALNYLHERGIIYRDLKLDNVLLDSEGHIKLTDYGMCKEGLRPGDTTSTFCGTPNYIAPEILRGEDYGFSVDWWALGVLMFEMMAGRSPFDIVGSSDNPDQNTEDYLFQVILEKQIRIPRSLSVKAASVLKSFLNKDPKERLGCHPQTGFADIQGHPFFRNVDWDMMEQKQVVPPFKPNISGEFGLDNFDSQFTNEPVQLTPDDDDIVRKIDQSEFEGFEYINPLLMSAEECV
Assay: PKCι IC50 IMAP assay, full-length PKCι at 150 μM ATP
Settings: read-out: IC50 in IMAP assay against full length PKCi at 150 μM ATP
pIC50: −log10 of the molar value.
observable: pIC50

- CC1(C)CN(c2nc(-c3ccnc(Nc4c(F)cccc4F)c3)nc3cncc(C4CC4)c23)CCN1: > 7.00
- CC(C)(c1cc2c(-c3nc(N4CCNCC4)c4c(C5CCC5)cncc4n3)ccnc2[nH]1)C(F)(F)F: > 7.00

Record lookup: for full-length human PKCι (Homo sapiens, UniProt P41743), what pIC50 belongs to FC1(F)CCC(Nc2cc(-c3nc(N4CCNCC4)c4c(C5CC5)cncc4n3)ccn2)CC1 ?
> 7.00

What measured pIC50 is associated with Fc1cccc(F)c1Nc1cc(-c2nc(NC3CCCNCC3)c3c(C4CC4)cncc3n2)ccn1 (centres unmarked) on full-length human PKCι (Homo sapiens, UniProt P41743)?
> 7.00

full-length human PKCι (Homo sapiens, UniProt P41743) / pIC50 / COc1cncc2nc(-c3ccncc3F)nc(N3CCNCC3)c12 : value?
6.00 to 7.00

Item CNc1cc(-c2nc(N3CCNCC3)c3c(C4CC4)cncc3n2)ccn1 with full-length human PKCι (Homo sapiens, UniProt P41743) - pIC50?
> 7.00

Test system full-length human PKCι (Homo sapiens, UniProt P41743); read-out pIC50; what value for COc1cncc2nc(N3CCOCC3)nc(N3CCN[C@@H](CO)C3)c12 ?
6.00 to 7.00

Hello, I am looking for reported pIC50 with full-length human PKCι (Homo sapiens, UniProt P41743) for N#Cc1ccnc(Nc2cc(-c3nc(N[C@@H]4CCNC4)c4ccncc4n3)ccn2)c1 . Could you help?
> 7.00

====

Biological target: full-length human PKCι (Homo sapiens, UniProt P41743)
Construct: Recombinant, full-length human PKCι expressed in Sf21 insect cells is also commercially available
Sequence (P41743 1-596): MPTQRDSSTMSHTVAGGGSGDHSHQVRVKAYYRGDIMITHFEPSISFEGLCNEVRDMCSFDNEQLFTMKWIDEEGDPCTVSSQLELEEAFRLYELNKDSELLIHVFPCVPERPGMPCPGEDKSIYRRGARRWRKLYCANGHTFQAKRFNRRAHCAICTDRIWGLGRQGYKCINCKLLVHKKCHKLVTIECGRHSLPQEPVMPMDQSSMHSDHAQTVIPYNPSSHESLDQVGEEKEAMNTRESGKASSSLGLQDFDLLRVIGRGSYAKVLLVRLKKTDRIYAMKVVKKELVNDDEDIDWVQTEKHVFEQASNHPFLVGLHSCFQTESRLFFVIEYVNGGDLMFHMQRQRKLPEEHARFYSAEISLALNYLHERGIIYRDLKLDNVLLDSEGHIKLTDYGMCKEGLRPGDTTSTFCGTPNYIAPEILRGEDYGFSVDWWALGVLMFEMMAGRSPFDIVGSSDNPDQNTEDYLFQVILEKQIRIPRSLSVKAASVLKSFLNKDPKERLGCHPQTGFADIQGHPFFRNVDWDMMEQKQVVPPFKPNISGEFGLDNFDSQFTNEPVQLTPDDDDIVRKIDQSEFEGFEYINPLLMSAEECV
Test: PKCι IC50 IMAP assay, full-length PKCι at 150 μM ATP
Details: read-out: IC50 in IMAP assay against full length PKCi at 150 μM ATP
Counter-ions that a name gives are not always drawn.
observable: IC50

- CC(C)(C)c1cc2c(-c3nc(N4CCNCC4)c4c(C5CC5)cncc4n3)ccnc2[nH]1: < 100 nM

Requested read-out: IC50. Entry: COc1cncc2nc(-c3ccnc(Nc4ccccc4)c3)nc(N3CCNC(C(F)(F)F)C3)c12 (stereo not drawn)
10000 to 40000 nM

Entry CN1CCN(c2cccc(Nc3cc(-c4nc(N5CCC(O)C(O)C5)c5c(C6CC6)cncc5n4)ccn3)c2)CC1 (single isomer, unassigned) [Example 753] has what IC50?
< 100 nM

Tell me the measured IC50 of CC(C)(c1ccccc1)c1cc2c(-c3nc(N4CCNCC4)c4c(C5CC5)cncc4n3)ccnc2[nH]1 , please.
< 100 nM

Fill in: IC50 of CC1(C)CN(c2nc(-c3ccnc4[nH]c5ccccc5c34)nc3cncc(C4CC4)c23)CCN1 [Example 1255, trifluoroacetic acid salt] is ___
< 100 nM

Look up IC50 for this compound: COCCN1CCN(c2nc(-c3ccnc(Nc4ccccc4)c3)nc3cncc(C4CC4)c23)CC1
1000 to 10000 nM

Given the entry CN1CCN(c2cccc(Nc3cc(-c4nc(N5CC[C@H](O)[C@H](O)C5)c5c(C6CC6)cncc5n4)ccn3)c2)CC1 (racemic) , report its measured IC50.
< 100 nM

Reported IC50 for Cc1cccc(Nc2cc(-c3nc(N4CCNCC4)c4c(C5CC5)cncc4n3)ccn2)c1F : what is it?
< 100 nM

Please look up its IC50: CSc1nccc2c(NC[C@@H](N)Cc3ccccc3)nc(-c3ccncc3)nc12
1000 to 10000 nM

Given the entry c1cc(C2CC2)c2nc(Nc3cc(-c4nc(N5CCNCC5)c5c(C6CC6)cncc5n4)ccn3)nn2c1 , report its measured IC50.
< 100 nM

I am curious: what IC50 value has been reported for COC(=O)[C@@H]1C[C@H](NC(=O)[C@@H]2C[C@H](Nc3nc(-c4ccncc4)nc4cnccc34)CN2)CN1 ?
1000 to 10000 nM

I am curious: what IC50 value has been reported for N#Cc1cc(F)c(Nc2cc(-c3nc(N4CCNCC4)c4c(C5CC5)cncc4n3)ccn2)c(F)c1 ?
100 to 1000 nM

Quick one: IC50 of C[C@@H]1CN(c2nc(-c3ccnc(Nc4c(F)cccc4F)c3)nc3cncc(C4CC4)c23)C[C@H](C)N1 ?
< 100 nM

Dear colleague, I am looking for the recorded IC50 of the following compound: O[C@H]1Cc2ccccc2[C@@H]1Nc1cc(-c2nc(N3CCNCC3)c3c(C4CC4)cncc3n2)ccn1
< 100 nM

Give its IC50 value. Item: O=C1OCC2CN(c3nc(-c4ccnc(Nc5ccccc5)c4)nc4cncc(C5CC5)c34)CCN12 (stereo not drawn)
100 to 1000 nM
